test system: BT-549 breast; experiment: NCI tumour cell line growth inhibition, 48 h
For each record, write down the corresponding TGI.
One number for each entry, in µM.

Past entries and their recorded results:
CN(C)CCNC(=O)c1ccc2c(c1)oc1cc3ccccc3c(=O)n12
45.8
C[C@H]1C[C@@H](n2c(Nc3ccc(OC(F)(F)F)cc3)nc3cc(CCC(=O)O)ccc32)CC(C)(C)C1
12
CC(=O)CC[N+](C)(C)C
62.6

Go through the items and report each one's TGI.
1. CN[C@@H](C)C(=O)N[C@H](C(=O)N1CCC[C@H]1c1nc(C(=O)c2ccc(F)cc2)cs1)C1CCCCC1
2. CCc1cn2c(/C=N/N=C(N)N)c(-c3cc(C)c(Cl)cc3Cl)nc2s1

[reply]
[26.7, 3.2]

* * *

Answer each item with its documented TGI.
tested on: UACC-257 melanoma; test: NCI tumour cell line growth inhibition, 48 h

Answered cases to consult:
O=C1/C(=C/c2cccc([N+](=O)[O-])c2)N=C(c2ccccc2)N1c1nc2ccc(Sc3ccccc3)cc2[nH]1
> 100 µM
O=C(N/N=C\c1ccc(Cl)cc1)Nc1ccc2ccccc2c1
> 100 µM
CCN(Cc1cc(Cl)cc(C)c1O)Cc1c(O)ccc2ccccc12
30.4 µM
CC(C#N)(NO)C(C)(C#N)NO (configuration not stated)
> 100 µM
CN(c1cccc(C(=O)O)c1)c1cc(O/N=[N+](\[O-])N(C)C)c([N+](=O)[O-])cc1[N+](=O)[O-]
> 100 µM
O=C(O)/C=C/c1c2ccc(=O)c(O)c-2oc2c(O)c(O)ccc12
> 100 µM
Cc1nc2c(Cl)cc(Cl)cc2c2c1CCO2
> 100 µM
COC(=O)CNC(=O)C(=O)c1c(O)c(O)c(C(C)C)c2cc(C)c(-c3c(C)cc4c(C(C)C)c(O)c(O)c(C(=O)C(=O)NCC(=O)OC)c4c3O)c(O)c12
20.9 µM

Batch lookup, TGI per entry.
1. O=C(CCCc1cccc2[nH]c3c(c12)CN(Cc1ccccc1)CC3)c1ccc(F)cc1
2. CC(=O)C1=C(C)N(c2ccccc2)C2(O)C3=C(C(=O)c4ccccc4C3=O)C(O)=CC12Cl (configuration not stated)
3. CC(C)CC1c2[nH]c3ccccc3c2C[C@H]2C(=O)NC(Cc3c[nH]c4ccccc34)C(=O)N12 (some centres not stated)
4. O=NNc1ccc(-c2ccccc2)cn1
5. COC(=O)c1ccc(OCCn2nnc(C(=O)NN)c2C(=O)NN)cc1
6. CC(=O)OC1(Sc2ccccc2)CC2[C@H]3COC(C)(C)O[C@H]3CC[C@@]2(C)CC1=O (some centres not stated)

[reply]
1: > 100 µM; 2: 19.3 µM; 3: 28.9 µM; 4: > 90.6 µM; 5: > 100 µM; 6: > 100 µM

* * *

system: CCRF-CEM leukemia; assay: NCI tumour cell line growth inhibition, 48 h
Give GI50 for every item shown.

Consider the worked cases shown below.
COc1ccc(-n2cc(-c3cc(OC)c(OC)c(OC)c3)nc2SCc2cccc(C#N)c2)cc1OC
> 100 µM
COc1ccc(C2=C(c3ccc(OC)cc3)C(=O)OC2)cc1
3.29 µM
COc1ccc(Cn2cc3c(c2-c2ccccc2)CCc2cnoc2-3)cc1
0.251 µM

State recorded GI50 for all listed molecules.
1. CCCC(=O)Oc1ccc(/C(=C(\C)c2ccc(Cl)cc2)c2ccc(OCCN(CC)CC)cc2)cc1
2. O=[N+]([O-])c1ccccc1/C=N\NC(=S)N/N=C/c1ccccc1[N+](=O)[O-]
3. CN1CCN(C2=C(Cl)C(=O)c3ccccc3C2=O)CC1
4. ClCCCN1CCN(CCCl)CC1

[reply]
1. 4.18 µM
2. 4.19 µM
3. 2.45 µM
4. 2.54 µM
